- Measurement protocol: Solubility (buffer pH 7.4)
- Format: physicochemical
- Settings: read-out: S
Measured quantity: log10 solubility (log10 of the value in µg/mL)

[
  {
    "Record smiles": "NS(=O)(=O)c1ccc(SCCCO)c(Cl)c1",
    "Measured quantity": "log10 solubility",
    "Endpoint result": 2.45
  },
  {
    "Record smiles": "NS(=O)(=O)c1ccc(SCCCO)cc1",
    "Measured quantity": "log10 solubility",
    "Endpoint result": 3.15
  },
  {
    "Record smiles": "NS(=O)(=O)c1ccc(S(=O)(=O)CCCO)c([N+](=O)[O-])c1",
    "Measured quantity": "log10 solubility",
    "Endpoint result": 2.90
  },
  {
    "Record smiles": "NS(=O)(=O)c1ccc(SCCCCCO)cc1",
    "Measured quantity": "log10 solubility",
    "Endpoint result": 2.78
  },
  {
    "Record smiles": "NS(=O)(=O)c1ccc(SCCCCO)c(F)c1",
    "Measured quantity": "log10 solubility",
    "Endpoint result": 3.00
  },
  {
    "Record smiles": "NS(=O)(=O)c1ccc(S(=O)(=O)CCO)s1",
    "Measured quantity": "log10 solubility",
    "Endpoint result": 4.34
  }
]
